experiment: kinase inhibitors against Plasmodium liver-stage infection, cell-based, known kinase inhibitor set, luminescence, hepatoma host viability (AID 624392); details: Plasmodium liver stage in hepatoma cells, luciferase luminescence, concentration not given here; measured here: host liver cell viability;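 note: infected cells incubated roughly two days before readout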

# compound, liver cell % of control / %
data = [
    ("COc1cccc(-n2cnc3c(N/N=C/c4ccncc4)ncnc32)c1", 88.9),
    ("Nc1nccc(-c2c(-c3ccc(F)cc3)nn3cc(C(F)(F)F)ccc23)n1", 111),
    ("Cc1c2ccc(N(C)c3ccnc(Nc4cccc(S(N)(=O)=O)c4)n3)cc2nn1C", 94.3),
    ("Cn1cc(C2=C(c3c4n(c5ccccc35)CC(CN)C4)C(=O)NC2=O)c2ccccc21 (stereo not given)", 97.6),
    ("COc1cccc(F)c1C(=O)c1cnc(NC2CCN(S(C)(=O)=O)CC2)nc1N", 93.1),
    ("CS(=O)(=O)CCc1cccc(C(=O)c2cnn(-c3ccc(F)cc3)c2N)c1", 95.7),
    ("O=C1NC(=NCc2cccs2)OC1=Cc1ccc2ncccc2c1", 113),
    ("COC(=O)Nc1nc2ccc(Oc3ccc(NC(=O)Nc4cc(C(F)(F)F)ccc4F)cc3)cc2s1", 100),
    ("COc1ccc(-c2nn3ncccc3c2-c2ccnc(Nc3ccc(F)c(F)c3)n2)cc1", 177),
    ("Cc1ccc(NC(=O)c2ccnc(N3CCOCC3)c2)cc1-c1ccc(C(=O)NCC2CC2)cc1", 100),
]

* * *

test: CellTiter-Glo luminescent readout of SW480 viability loss, NPC library primary (AID 1117343); conditions: CellTiter-Glo luminescence; at 20 µM (top of the series)
Active and inactive are the calls of the source.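 How the source made its calls: active means compounds that lower viability of the colon cancer cells in the luminescence readout, with no numeric limit stated; inactive means the rest.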
Outcomes: 1 (yes) for active, 0 (no) for inactive

# compound, class-assignment
measured = [
    ("CC1(C)CO[C@@H](CC(=O)O)CN1", "0 (no)"),
    ("NC[C@H]1O[C@H](O[C@H]2[C@@H](O)[C@@H](O[C@H]3O[C@H](CO)[C@@H](O)[C@H](N)[C@@H]3O)[C@H](N)C[C@@H]2N)[C@H](N)C[C@H]1O", "0 (no)"),
    ("CCCC(CCC)(C(=O)OCC)C(=O)OCC", "0 (no)"),
    ("COc1ccc2c(c1)CCCC2=O", "0 (no)"),
    ("O=[N+]([O-])c1ccc(/C=N\\O)o1", "1 (yes)"),
    ("CN(C)CCOc1ccccc1Cc1ccccc1", "0 (no)"),
    ("CN1[C@@H]2CC[C@H]1CC(NC(=O)n1c(=O)[nH]c3ccccc31)C2 (stereo not given in full)", "0 (no)"),
    ("NC(=O)N1c2ccccc2C=Cc2ccccc21", "0 (no)"),
    ("CCN(CC)CCNC(=O)COc1ccc(Cl)cc1", "0 (no)"),
    ("C[C@@H](O)[C@H](N)C(=O)O", "0 (no)"),
    ("CCOC(=O)c1cc(=O)c2c(OCC(COc3cccc4oc(C(=O)OCC)cc(=O)c34)OC(=O)[C@@H](N)CCCCN)cccc2o1", "0 (no)"),
    ("c1ccc([C@H]2CN3CCSC3=N2)cc1", "0 (no)"),
    ("Nc1c(I)cc(I)c(C(=O)N(CCC(=O)O)c2ccccc2)c1I", "1 (yes)"),
    ("CCCCC/C(C=O)=C\\c1ccccc1", "0 (no)"),
    ("COC(=O)CCC(=O)CN", "0 (no)"),
    ("O=C1CCC(C(=O)O)N1 (stereo not given)", "0 (no)"),
    ("O=C(c1ccco1)N1CCNCC1", "0 (no)"),
    ("O=C(O)c1ccc(OCCCOc2ccc(C(=O)O)cc2)cc1", "0 (no)"),
    ("Cc1cc(C)c(NC(=O)CN(CC(=O)O)CC(=O)O)c(C)c1Br", "0 (no)"),
    ("CC(C)(Cc1c[nH]c2ccccc12)NCC(O)COc1ccccc1C#N (stereo not given)", "1 (yes)"),
    ("c1ccc(CC2=NCCN2)cc1", "0 (no)"),
    ("COc1cc2nc(N(C)CCCNC(=O)C3CCCO3)nc(N)c2cc1OC (stereo not given)", "0 (no)"),
    ("CCCc1cc(=O)[nH]c(=S)[nH]1", "0 (no)"),
    ("CC(C)(C)CC(C)(C)c1ccc(O)c(-n2nc3ccccc3n2)c1", "1 (yes)"),
    ("N[C@H](C(=O)O)c1ccc(O)cc1", "0 (no)"),
]

Value source: PubChem BioAssay
